These entries and their values trace back to PubChem BioAssay AID624352.

Each record here notes measured inhibition.
test protocol: HIF-2a reporter inhibitors, primary screen, luminescence, 786-0 RCC cells (AID 624352)
measurement setup: 786-0 RCC cells HIF-2a reporter, luciferase luminescence, overnight; at 18.8 µM; active compounds read high
About 2,600 (0.72%) of roughly 360,000 compounds were called active. This is one part of a sample in which actives are shown more often than they occur.
Use % as the unit, but write only the number.

Below are worked cases with known answers.
sample smiles: O=C(NC(=S)Nc1ccc(Cl)cc1Cl)C1CC1
inhibition, %: -294
--
sample smiles: Fc1ccc(CNc2nc3ccccc3n3nnnc23)cc1
inhibition, %: -134
--
sample smiles: O=C(OCN1C(=O)c2ccccc2C1=O)/C(=C\c1ccco1)NC(=O)c1ccccc1
inhibition, %: 1.64
--
sample smiles: C=CCOc1ccc(/C=C2\SC(=S)N(CCC(=O)O)C2=O)cc1
inhibition, %: 90.6
--
sample smiles: O=C(CCCN1C(=O)/C(=C/c2ccco2)SC1=S)Nc1ccccc1
inhibition, %: 45.3

Looking up O=C(Cc1cccc2ccccc12)NNC(=O)Nc1ccc(Cl)cc1 , I see its inhibition listed as -196

Sure, the documented inhibition for CN1C(=O)c2ccc(NC(=O)C3CCCCC3)cc2C1=O is -8.6

# compound O=C(CCCN1C(=O)/C(=C/c2ccccc2)SC1=S)Nc1ccc(O)cc1 ; its inhibition = 46.2
